Test system: NCI/ADR-RES
STUDY_CONDITIONS: NCI/ADR-RES (Breast Cancer), 48 hours, SRB
Record form. Attribute: TGI. Fill in for each entry.
I only need the number, in µM, no unit after it.

q: Lab note: need TGI with NCI/ADR-RES for entry Cc1cc(C)cc(-c2ccc3c(c2)[N+]([O-])=C2C3=C[C@@]34NC(=O)C5(CCCN5C3=O)CC4C2(C)C)c1 (stereo partly shown) , please look it up.
a: 2.27

q: State its TGI on NCI/ADR-RES: CC1(C)C=Cc2c(ccc3c4c(n(O)c23)C(C)(C)C2CC35CCCN3C(=O)C2(NC5=O)C4SCC(NC(=O)CCC(N)C(=O)O)C(=O)NCC(=O)O)O1 (stereo not shown)
a: 14

q: I'm curious: which TGI was measured for [2H]On1c2c(c3ccc4c(c31)C=CC(C)(C)O4)C(OC([2H])([2H])[2H])[C@@]13NC(=O)C4(CCCN4C1=O)CC3C2(C)C (stereo partly shown) tested on NCI/ADR-RES?
a: 9.95
